# SUBJECT OF TEST: AgLsb1
# METHOD SUMMARY: SPOT peptide array binding signal intensity (averaged, normalized) (arbitrary units (background-subtracted, floor 0; scale differs between SH3 domains)); higher = stronger binding of the SH3 domain to the peptide
Tag: Yes if measured SPOT peptide array binding signal intensity is not below 1, No if it is.

**Query** Evaluate FSRRQSMDIPSKNRN : SPOT peptide array binding signal intensity at minimum 1?
**Result** Yes

**Query** Evaluate NVLRKILEIPLHSFS : SPOT peptide array binding signal intensity at minimum 1?
**Result** Yes

**Query** Evaluate ISRRRLPVIMHRLKM : SPOT peptide array binding signal intensity at minimum 1?
**Result** Yes

**Query** Evaluate NNFYRPLLRSVLVLL : SPOT peptide array binding signal intensity at minimum 1?
**Result** No
